organism: Rattus norvegicus; assay: DrugMatrix - Regimen: Daily Repeat; format: toxicity, organism-based, Sprague-Dawley; parameters: regimen Daily Repeat, gender Male, age 6-8 weeks; details: in vivo, ip, 0 mg/kg, 120 h, tissue Blood, route intraperitoneal, dose level Control, time 5 day, vehicle 100 % SALINE
Examples of sequences with documented ABSOLUTE EOSINOPHIL follow.

Residue sequence	ABSOLUTE EOSINOPHIL, cells/µL
TRANSPLATIN	110
COBALTOUS CHLORIDE	110

* * *

species: Rattus norvegicus; test: DrugMatrix - Regimen: Daily Repeat; format: toxicity, organism-based, Sprague-Dawley; parameters: regimen Daily Repeat, gender Male, age 6-8 weeks; details: in vivo, po, 0 mg/kg, 72 h, tissue Plasma, route oral GAVAGE, dose level Control, time 3 day, vehicle .5 % CMC

Molecule	CREATININE
COc1ccccc1[N+](=O)[O-] [2-NITROANISOLE]	0.17 mg/dL
CN(C)C(=O)C(CCN1CCC(O)(c2ccc(Cl)cc2)CC1)(c1ccccc1)c1ccccc1 [LOPERAMIDE]	0.18 mg/dL
CCC1=C(C)CN(C(=O)NCCc2ccc(S(=O)(=O)NC(=O)N[C@H]3CC[C@H](C)CC3)cc2)C1=O [GLIMEPIRIDE]	0.18 mg/dL
C[C@@](Cc1ccc(O)c(O)c1)(NN)C(=O)O.O [CARBIDOPA]	0.2 mg/dL
C[C@]12CC[C@@H]3c4ccc(O)cc4CC[C@H]3[C@@H]1C[C@@H](O)[C@@H]2O [ESTRIOL]	0.18 mg/dL

* * *

species: Rattus norvegicus; assay: DrugMatrix - Regimen: Daily Repeat; format: toxicity, organism-based, Sprague-Dawley; set-up: regimen Daily Repeat, gender Male, age 6-8 weeks; conditions: in vivo, po, 0 mg/kg, 120 h, tissue Blood, route oral GAVAGE, dose level Control, time 5 day, vehicle 100 % WATER
Readout: ABSOLUTE MONOCYTE (CELLS/uL)

Compound	Reading
NC(=O)c1cccnc1 [NIACINAMIDE]	465.5
O=c1[nH]c(=O)n(C2CCCO2)cc1F (stereo not drawn)	177.67
CCN(C(C)=O)c1cccc(-c2ccnc3c(C#N)cnn23)c1	106.33
CCCC(C)C1(CC)C(=O)NC(=O)NC1=O (stereo not drawn)	58.33
CNC1=Nc2ccc(Cl)cc2C(c2ccccc2)=[N+]([O-])C1 [CHLORDIAZEPOXIDE]	205.33
CN(C)C(=O)Oc1cccc([N+](C)(C)C)c1.[Br-] [NEOSTIGMINE BROMIDE]	58.33
NC12CC3CC(CC(C3)C1)C2	106.33
CN(C)CCC=C1c2ccccc2CCc2ccccc21	106.33

* * *

species: Rattus norvegicus; assay: DrugMatrix - Regimen: Daily Repeat; type: toxicity, organism-based, Sprague-Dawley; set-up: regimen Daily Repeat, gender Male, age 6-8 weeks; details: in vivo, ip, 0.5 mg/kg, […], tissue Blood, route intraperitoneal, dose level High, time 28 day, vehicle 100 % SALINE
Readout: ABSOLUTE LYMPHOCYTE (cells/µL)

1. TRANSPLATIN 9640

* * *

Listed next: entries and their corresponding MEAN CORPUSCULAR HEMOGLOBIN.
species on record: Rattus norvegicus; assay: DrugMatrix - Regimen: Daily Repeat; type: toxicity, organism-based, Sprague-Dawley; set-up: regimen Daily Repeat, gender Male, age 6-8 weeks; conditions: in vivo, po, 0 mg/kg, 72 h, tissue Blood, route oral GAVAGE, dose level Control, time 3 day, vehicle .5 % CMC
Readout: MEAN CORPUSCULAR HEMOGLOBIN (pg)

Molecule	Readout	Unit spec	Reading
COc1ccc2c(c1OC)C(=O)O[C@@H]2[C@H]1c2c(cc3c(c2OC)OCO3)CCN1C	MEAN CORPUSCULAR HEMOGLOBIN	pg	19.72
CN(C)C(=O)C(CCN1CCC(O)(c2ccc(Cl)cc2)CC1)(c1ccccc1)c1ccccc1 [LOPERAMIDE]	MEAN CORPUSCULAR HEMOGLOBIN	pg	25.1
NC(=O)N1c2ccccc2CC(=O)c2ccccc21 [OXCARBAZEPINE]	MEAN CORPUSCULAR HEMOGLOBIN	pg	24.67
COc1cc(OC)c(C(=O)CCCN2CCCC2)c(OC)c1	MEAN CORPUSCULAR HEMOGLOBIN	pg	24.78
C[C@]12CC[C@@H]3c4ccc(O)cc4CC[C@H]3[C@@H]1C[C@@H](O)[C@@H]2O	MEAN CORPUSCULAR HEMOGLOBIN	pg	24.6

* * *

species on record: Rattus norvegicus; test: DrugMatrix - Regimen: Daily Repeat; type: toxicity, organism-based, Sprague-Dawley; parameters: regimen Daily Repeat, gender Male, age 6-8 weeks; settings: in vivo, po, 0 mg/kg, 72 h, tissue Plasma, route oral GAVAGE, dose level Control, time 3 day, […]

Molecule	BLOOD UREA NITROGEN, mg/dL
CCCCC(=O)N(Cc1ccc(-c2ccccc2-c2nnn[nH]2)cc1)[C@H](C(=O)O)C(C)C	14
CC(C)c1c(C(=O)Nc2ccccc2)c(-c2ccccc2)c(-c2ccc(F)cc2)n1CC[C@@H](O)C[C@@H](O)CC(=O)O [ATORVASTATIN]	14.5
O=c1c(-c2ccc(O)cc2)coc2cc(O)cc(O)c12 [GENISTEIN]	14.5
ClC(Cl)(Cl)Cl [CARBON TETRACHLORIDE]	13.5
Cc1ccc(C)c(OCCCC(C)(C)C(=O)O)c1 [GEMFIBROZIL]	18

* * *

species on record: Rattus norvegicus; test: DrugMatrix - Regimen: Daily Repeat; type: toxicity, organism-based, Sprague-Dawley; parameters: regimen Daily Repeat, gender Male, age 6-8 weeks; conditions: in vivo, iv, 0 mg/kg, 120 h, tissue Plasma, dose level Control, time 5 day, vehicle 100 % SALINE

Molecule	URIC ACID [mg/dL]
O=c1[nH]c(=O)n([C@H]2C[C@H](O)[C@@H](CO)O2)cc1F	1.48
C[N+](C)(C)CCOC(=O)CCC(=O)OCC[N+](C)(C)C.[Cl-].[Cl-] [SUCCINYLCHOLINE CHLORIDE]	1.63
N=C(N)c1ccc(OCCCCCOc2ccc(C(=N)N)cc2)cc1	1.63
COc1cccc2c1C(=O)c1c(O)c3c(c(O)c1C2=O)C[C@@](O)(C(C)=O)C[C@@H]3O[C@H]1C[C@H](N)[C@H](O)[C@H](C)O1	1.85
O=C(O)P(=O)(O)O	2

* * *

species: Rattus norvegicus; experiment: DrugMatrix - Regimen: Daily Repeat; format: toxicity, organism-based, Sprague-Dawley; parameters: regimen Daily Repeat, gender Male, age 6-8 weeks; conditions: in vivo, po, 0 mg/kg, 120 h, tissue Plasma, route oral GAVAGE, dose level Control, time 5 day, vehicle 100 % WATER
Below, each entry is listed alongside its reported URIC ACID.
Readout: URIC ACID (mg/dL)

Compound	Readout	Reading
CNC1=Nc2ccc(Cl)cc2C(c2ccccc2)=[N+]([O-])C1 [CHLORDIAZEPOXIDE]	URIC ACID	1.82
CCN(C(C)=O)c1cccc(-c2ccnc3c(C#N)cnn23)c1	URIC ACID	1.7
O=c1[nH]c(=O)n(C2CCCO2)cc1F (centres undefined)	URIC ACID	1.83
C#Cc1cccc(Nc2ncnc3cc(OCCOC)c(OCCOC)cc23)c1	URIC ACID	0.0833
NC(=O)c1cccnc1 [NIACINAMIDE]	URIC ACID	2
CCCC(C)C1(CC)C(=O)NC(=O)NC1=O (centres undefined)	URIC ACID	0.62
CN(C)CCC=C1c2ccccc2CCc2ccccc21	URIC ACID	1.7
CN(C)C(=O)Oc1cccc([N+](C)(C)C)c1.[Br-] [NEOSTIGMINE BROMIDE]	URIC ACID	0.62
NC12CC3CC(CC(C3)C1)C2	URIC ACID	1.7

* * *

Let's look at some compounds and their measured ABSOLUTE EOSINOPHIL.
organism: Rattus norvegicus; test: DrugMatrix - Regimen: Daily Repeat; type: toxicity, organism-based, Sprague-Dawley; parameters: regimen Daily Repeat, gender Male, age 6-8 weeks; settings: in vivo, po, 0 mg/kg, 72 h, tissue Blood, route oral GAVAGE, dose level Control, time 3 day, […]
Readout: ABSOLUTE EOSINOPHIL (CELLS/uL)

Compound	Readout	Reading
Cc1ccc(C)c(OCCCC(C)(C)C(=O)O)c1	ABSOLUTE EOSINOPHIL	37.33
CS(=O)(=O)Nc1ccc([N+](=O)[O-])cc1Oc1ccccc1 [NIMESULIDE]	ABSOLUTE EOSINOPHIL	0
O=c1c(-c2ccc(O)cc2)coc2cc(O)cc(O)c12	ABSOLUTE EOSINOPHIL	14

* * *

species on record: Rattus norvegicus; assay: DrugMatrix - Regimen: Daily Repeat; format: toxicity, organism-based, Sprague-Dawley; design: regimen Daily Repeat, gender Male, age 6-8 weeks; conditions: in vivo, ip, 0.5 mg/kg, 120 h, tissue Blood, route intraperitoneal, dose level High, time 5 day, vehicle 100 % SALINE
Readout: ABSOLUTE MONOCYTE

1. TRANSPLATIN 340 cells/µL
